Test system: OVCAR-8
Assay: Cytotoxicity against human OVCAR-8 cells assessed as cell viability at 10 uM incubated for 48 hrs by sulforhodamine B assay relative to control
Format: functional
Details: read-out: Activity
Would you kindly list viability at 10 µM for each of these compounds?
Give the value; after it, write the unit.

Endpoint output: viability at 10 µM of Cc1ccc(S(=O)(=O)NCCCNc2nccc(-c3c(-c4cccc(F)c4)nc4sccn34)n2)cc1 . Value?
60.3%

Endpoint output: viability at 10 µM of O=S(=O)(NCCCNc1nccc(-c2c(-c3cccc(F)c3)nc3sccn23)n1)c1ccc(O)cc1 . Value?
66.2%

Endpoint output: viability at 10 µM of O=S(=O)(NCCCNc1nccc(-c2c(-c3cccc(F)c3)nc3sccn23)n1)c1ccc(Br)cc1 . Value?
28%

Endpoint output: viability at 10 µM of O=S(=O)(NCCNc1nccc(-c2c(-c3cccc(F)c3)nc3sccn23)n1)c1ccc(Cl)cc1 . Value?
53.6%

Endpoint output: viability at 10 µM of O=S(=O)(NCCNc1nccc(-c2c(-c3cccc(F)c3)nc3sccn23)n1)c1ccccc1 . Value?
33.9%

====

System: SN12C
Assay: Cytotoxicity against human SN12C cells assessed as cell viability at 10 uM incubated for 48 hrs by sulforhodamine B assay relative to control
Format: functional
Details: read-out: Activity
Note to self: viability at 10 µM under 70% means rule met, ties and anything higher get rule not met.

Criterion: viability at 10 µM strictly below 70%. Is it met by O=S(=O)(NCCCNc1nccc(-c2c(-c3cccc(F)c3)nc3sccn23)n1)c1ccc(C(F)(F)F)cc1 ?
rule not met

Criterion: viability at 10 µM strictly below 70%. Is it met by O=S(=O)(NCCCNc1nccc(-c2c(-c3cccc(F)c3)nc3sccn23)n1)c1cccc2ccccc12 ?
rule met

Criterion: viability at 10 µM strictly below 70%. Is it met by O=S(=O)(NCCCNc1nccc(-c2c(-c3cccc(F)c3)nc3sccn23)n1)c1ccccc1 ?
rule met

Criterion: viability at 10 µM strictly below 70%. Is it met by O=C(NCCNc1nccc(-c2c(-c3cccc(F)c3)nc3sccn23)n1)c1ccc(C(F)(F)F)cc1 ?
rule met

Criterion: viability at 10 µM strictly below 70%. Is it met by O=C(NCCCNc1nccc(-c2c(-c3cccc(F)c3)nc3sccn23)n1)c1ccc(C(F)(F)F)cc1 ?
rule not met

Criterion: viability at 10 µM strictly below 70%. Is it met by O=C(NCCCNc1nccc(-c2c(-c3cccc(F)c3)nc3sccn23)n1)c1ccc(F)cc1 ?
rule not met

Criterion: viability at 10 µM strictly below 70%. Is it met by O=C(NCCNc1nccc(-c2c(-c3cccc(F)c3)nc3sccn23)n1)c1c(F)cccc1F ?
rule met

Criterion: viability at 10 µM strictly below 70%. Is it met by O=S(=O)(NCCCNc1nccc(-c2c(-c3cccc(F)c3)nc3sccn23)n1)c1ccc(Br)cc1 ?
rule met

Criterion: viability at 10 µM strictly below 70%. Is it met by O=S(=O)(NCCNc1nccc(-c2c(-c3cccc(F)c3)nc3sccn23)n1)c1cccc(F)c1 ?
rule met

Criterion: viability at 10 µM strictly below 70%. Is it met by O=C(NCCNc1nccc(-c2c(-c3cccc(F)c3)nc3sccn23)n1)C1CCCCC1 ?
rule met

Criterion: viability at 10 µM strictly below 70%. Is it met by O=S(=O)(NCCNc1nccc(-c2c(-c3cccc(F)c3)nc3sccn23)n1)c1ccc(Cl)cc1 ?
rule met

Criterion: viability at 10 µM strictly below 70%. Is it met by O=C(NCCCNc1nccc(-c2c(-c3cccc(F)c3)nc3sccn23)n1)C1CCCCC1 ?
rule met

Criterion: viability at 10 µM strictly below 70%. Is it met by O=S(=O)(NCCCNc1nccc(-c2c(-c3cccc(F)c3)nc3sccn23)n1)c1ccc(Cl)cc1 ?
rule met

Criterion: viability at 10 µM strictly below 70%. Is it met by O=C(NCCNc1nccc(-c2c(-c3cccc(F)c3)nc3sccn23)n1)c1ccccc1 ?
rule met

Criterion: viability at 10 µM strictly below 70%. Is it met by O=S(=O)(NCCNc1nccc(-c2c(-c3cccc(F)c3)nc3sccn23)n1)c1cccc2ccccc12 ?
rule not met

Criterion: viability at 10 µM strictly below 70%. Is it met by O=S(=O)(NCCNc1nccc(-c2c(-c3cccc(F)c3)nc3sccn23)n1)c1ccc(Br)cc1 ?
rule met

Criterion: viability at 10 µM strictly below 70%. Is it met by O=C(NCCNc1nccc(-c2c(-c3cccc(F)c3)nc3sccn23)n1)c1ccc(Cl)cc1 ?
rule met

Criterion: viability at 10 µM strictly below 70%. Is it met by O=S(=O)(NCCNc1nccc(-c2c(-c3cccc(F)c3)nc3sccn23)n1)c1ccc(C(F)(F)F)cc1 ?
rule not met

====

System: SK-MEL-2
Assay: Cytotoxicity against human SK-MEL-2 cells assessed as cell viability at 10 uM incubated for 48 hrs by sulforhodamine B assay relative to control
Type: functional
Conditions: read-out: Activity
MEASUREMENT KIND: viability at 10 µM (%)
Numeric only. Scale: %

Endpoint output: viability at 10 µM of O=C(NCCCNc1nccc(-c2c(-c3cccc(F)c3)nc3sccn23)n1)C1CCCCC1 . Value?
78.4

Endpoint output: viability at 10 µM of O=S(=O)(NCCCNc1nccc(-c2c(-c3cccc(F)c3)nc3sccn23)n1)c1ccc(O)cc1 . Value?
81.3

Endpoint output: viability at 10 µM of O=S(=O)(NCCNc1nccc(-c2c(-c3cccc(F)c3)nc3sccn23)n1)c1ccc(Cl)cc1 . Value?
79.8

Endpoint output: viability at 10 µM of O=S(=O)(NCCNc1nccc(-c2c(-c3cccc(F)c3)nc3sccn23)n1)c1cccc(F)c1 . Value?
81.8

Endpoint output: viability at 10 µM of O=S(=O)(NCCCNc1nccc(-c2c(-c3cccc(F)c3)nc3sccn23)n1)c1ccc(Br)cc1 . Value?
61.4

Endpoint output: viability at 10 µM of O=C(NCCNc1nccc(-c2c(-c3cccc(F)c3)nc3sccn23)n1)C1CCCCC1 . Value?
60.1

====

Tested on: BT-549
Test: Cytotoxicity against human BT-549 cells assessed as cell viability at 10 uM incubated for 48 hrs by sulforhodamine B assay relative to control
Assay type: functional
Conditions: read-out: Activity
Would you kindly list viability at 10 µM for each of these compounds?
Numeric only. Scale: %

Endpoint output: viability at 10 µM of O=C(NCCNc1nccc(-c2c(-c3cccc(F)c3)nc3sccn23)n1)c1ccc(C(F)(F)F)cc1 . Value?
78.9

Endpoint output: viability at 10 µM of O=S(=O)(NCCNc1nccc(-c2c(-c3cccc(F)c3)nc3sccn23)n1)c1cccc(F)c1 . Value?
81.5

Endpoint output: viability at 10 µM of O=S(=O)(NCCNc1nccc(-c2c(-c3cccc(F)c3)nc3sccn23)n1)c1ccc(C(F)(F)F)cc1 . Value?
79.3

Endpoint output: viability at 10 µM of O=S(=O)(NCCNc1nccc(-c2c(-c3cccc(F)c3)nc3sccn23)n1)c1ccc(F)cc1 . Value?
78.6

Endpoint output: viability at 10 µM of O=S(=O)(NCCCNc1nccc(-c2c(-c3cccc(F)c3)nc3sccn23)n1)c1ccc(F)cc1 . Value?
79.9

Endpoint output: viability at 10 µM of O=C(NCCCNc1nccc(-c2c(-c3cccc(F)c3)nc3sccn23)n1)C1CCCCC1 . Value?
78.6

====

System: RXF 393
Assay: Cytotoxicity against human RXF 393 cells assessed as cell viability at 10 uM incubated for 48 hrs by sulforhodamine B assay relative to control
Format: functional
Conditions: read-out: Activity
MEASUREMENT KIND: viability at 10 µM
Give the value; after it, write the unit.

Endpoint output: viability at 10 µM of O=S(=O)(NCCCNc1nccc(-c2c(-c3cccc(F)c3)nc3sccn23)n1)c1ccc(C(F)(F)F)cc1 . Value?
94.7%

Endpoint output: viability at 10 µM of O=C(NCCCNc1nccc(-c2c(-c3cccc(F)c3)nc3sccn23)n1)C1CCCCC1 . Value?
94.3%

Endpoint output: viability at 10 µM of O=S(=O)(NCCCNc1nccc(-c2c(-c3cccc(F)c3)nc3sccn23)n1)c1cccc(F)c1 . Value?
78.8%

====

Tested on: HCT-15
Assay: Cytotoxicity against human HCT-15 cells assessed as cell viability at 10 uM incubated for 48 hrs by sulforhodamine B assay relative to control
Assay type: functional
Settings: read-out: Activity
Note to self: viability at 10 µM under 40% means Criterion met, ties and anything higher get Criterion not met.

Criterion: viability at 10 µM strictly below 40%. Is it met by O=S(=O)(NCCNc1nccc(-c2c(-c3cccc(F)c3)nc3sccn23)n1)c1cccc2ccccc12 ?
Criterion not met

Criterion: viability at 10 µM strictly below 40%. Is it met by O=S(=O)(NCCCNc1nccc(-c2c(-c3cccc(F)c3)nc3sccn23)n1)c1cccc(F)c1 ?
Criterion met

Criterion: viability at 10 µM strictly below 40%. Is it met by O=C(NCCCNc1nccc(-c2c(-c3cccc(F)c3)nc3sccn23)n1)c1ccc(C(F)(F)F)cc1 ?
Criterion not met

Criterion: viability at 10 µM strictly below 40%. Is it met by O=S(=O)(NCCNc1nccc(-c2c(-c3cccc(F)c3)nc3sccn23)n1)c1ccc(Cl)cc1 ?
Criterion met

Criterion: viability at 10 µM strictly below 40%. Is it met by O=S(=O)(NCCCNc1nccc(-c2c(-c3cccc(F)c3)nc3sccn23)n1)c1cccc2ccccc12 ?
Criterion met

Criterion: viability at 10 µM strictly below 40%. Is it met by O=S(=O)(NCCCNc1nccc(-c2c(-c3cccc(F)c3)nc3sccn23)n1)c1ccc(Cl)cc1 ?
Criterion not met

Criterion: viability at 10 µM strictly below 40%. Is it met by O=S(=O)(NCCCNc1nccc(-c2c(-c3cccc(F)c3)nc3sccn23)n1)c1ccc(O)cc1 ?
Criterion not met

Criterion: viability at 10 µM strictly below 40%. Is it met by O=C(NCCNc1nccc(-c2c(-c3cccc(F)c3)nc3sccn23)n1)c1ccccc1 ?
Criterion met

Criterion: viability at 10 µM strictly below 40%. Is it met by O=S(=O)(NCCCNc1nccc(-c2c(-c3cccc(F)c3)nc3sccn23)n1)c1ccc(C(F)(F)F)cc1 ?
Criterion not met

Criterion: viability at 10 µM strictly below 40%. Is it met by O=C(NCCCNc1nccc(-c2c(-c3cccc(F)c3)nc3sccn23)n1)C1CCCCC1 ?
Criterion not met

Criterion: viability at 10 µM strictly below 40%. Is it met by O=S(=O)(NCCCNc1nccc(-c2c(-c3cccc(F)c3)nc3sccn23)n1)c1ccc(F)cc1 ?
Criterion not met
